B1: TPR 5TU (parent)
chain: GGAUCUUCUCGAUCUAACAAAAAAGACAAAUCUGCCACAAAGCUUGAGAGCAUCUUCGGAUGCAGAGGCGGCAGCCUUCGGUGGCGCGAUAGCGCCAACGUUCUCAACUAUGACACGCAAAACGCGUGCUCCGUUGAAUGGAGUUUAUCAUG

# Variants of: B1
# assay-comment: polymerase ribozyme fitness, log enrichment relative to wild type (log ratio); higher = more active; in vitro selection for triplet polymerase activity
This sample holds only a part of the variants without activity.
Lab note: anything with polymerase ribozyme fitness (log ratio) at or over -3 counts as Satisfied; the rest go in Not satisfied.

[
  {
    "mut": "G50C U102G",
    "class-label": "Not satisfied"
  },
  {
    "mut": "A26U A30U A37C U61A A66C G67C C69U C87A C105A C125U",
    "class-label": "Not satisfied"
  },
  {
    "mut": "G92A G117C",
    "class-label": "Satisfied"
  },
  {
    "mut": "A22U A47U U53G U55A C57U G68A G86C C99U A138C U148G",
    "class-label": "Not satisfied"
  },
  {
    "mut": "A19U G86A",
    "class-label": "Satisfied"
  },
  {
    "mut": "G58A C75U C96G",
    "class-label": "Satisfied"
  },
  {
    "mut": "C8A G84A",
    "class-label": "Not satisfied"
  },
  {
    "mut": "A17G G50U A66G G92C C95U G141A",
    "class-label": "Not satisfied"
  },
  {
    "mut": "G48U G92U A121C A150C",
    "class-label": "Not satisfied"
  },
  {
    "mut": "C43A G88A",
    "class-label": "Not satisfied"
  }
]

Now, please, on to the next variant.
Is polymerase ribozyme fitness (log ratio) at least -3? Consider A30C G65A G67C G100A A119U
Not satisfied

// data source = the RNAGym collection of RNA variant scans (doi:10.1073/pnas.2313332121)
